tested on: Fusarium graminearum; test: microbe, parasite or virus in culture; format: cell-based; settings: 50 μM
For each of the compounds below, state its % inhibition of the fungal growth of Fusarium graminearum at 50 μM.
Phrase the answer as number then unit, nothing more needed.

Consider the reported % inhibition of the fungal growth of Fusarium graminearum at 50 μM for these compounds:
> print(dat)
                                   compound  test.result
1  O=C(Nc1cc(-c2c(-c3ccccc3)nn3c2CCCC3)ccn1)c1ccsc1 [Example 51]          41%
2  Nc1cc(-c2c(-c3ccccc3)nn3c2CCCC3)ccn1 [Example 14]          24%
3  CC(=O)Nc1cc(-c2c(-c3ccccc3)nn3c2CCCC3)ccn1 [Example 19]         100%
4  C[C@H](O)C(=O)Nc1cc(-c2c(-c3ccc(F)cc3)nn3c2CCCC3)ccn1 [Example 24]          74%

Continue with the next compound.
Name the recorded % inhibition of the fungal growth of Fusarium graminearum at 50 μM for COCC(=O)Nc1cc(-c2c(-c3ccsc3)nn3c2CCCC3)ccn1 [Example 60] . 100%
